target: UniProtKB P08684; assay: Inhibition of CYP3A4 in human liver microsomes assessed as testosterone 6beta-hydroxylation after 3 mins by LC-MS/MS analysis in presence of NADPH; assay type: ADME
property-measured: IC50

Task: For N#C[C@@H]1C[C@@H]2C[C@@H]2N1C(=O)[C@@H](N)C12CC3CC(O)(CC(O)(C3)C1)C2 , what is its reported IC50?
Output: > 200 µM

---

molecular target: Cytochrome P450 2B6 (Homo sapiens, UniProt P20813); assay: Inhibition of CYP2B6 in human liver microsomes assessed as bupropion hydroxylation preincubated for 15 mins by LC-MS/MS analysis in presence of NADPH; assay type: ADME
Sequence (P20813 whole entry): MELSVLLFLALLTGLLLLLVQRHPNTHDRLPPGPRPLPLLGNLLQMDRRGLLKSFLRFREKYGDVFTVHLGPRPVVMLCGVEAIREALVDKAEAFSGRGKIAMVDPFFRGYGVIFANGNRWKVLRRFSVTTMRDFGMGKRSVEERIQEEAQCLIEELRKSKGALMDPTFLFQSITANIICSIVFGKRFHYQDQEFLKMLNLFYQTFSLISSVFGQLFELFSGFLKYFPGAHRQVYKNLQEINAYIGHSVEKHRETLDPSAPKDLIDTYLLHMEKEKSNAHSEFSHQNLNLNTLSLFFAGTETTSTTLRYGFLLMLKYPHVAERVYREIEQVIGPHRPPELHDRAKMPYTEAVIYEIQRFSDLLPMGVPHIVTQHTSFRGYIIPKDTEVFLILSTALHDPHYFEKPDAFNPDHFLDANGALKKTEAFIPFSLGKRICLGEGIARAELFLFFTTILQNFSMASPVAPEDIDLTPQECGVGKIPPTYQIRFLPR
pIC50: −log10 of the molar value.
Would you mind telling me the reported pIC50 of each entry?

molecule	readout-value
N#C[C@@H]1C[C@@H]2C[C@@H]2N1C(=O)[C@@H](N)C12CC3CC(CC(O)(C3)C1)C2 [SAXAGLIPTIN ANHYDROUS]	< 4.30

Okay, now this molecule:
Task: # lookup: pIC50 of N#C[C@@H]1C[C@@H]2C[C@@H]2N1C(=O)[C@@H](N)C12CC3CC(O)(CC(O)(C3)C1)C2
Output: < 3.70

---

molecular target: Cytochrome P450 1A2 (Homo sapiens); experiment: Inhibition of CYP1A2 in human liver microsomes assessed as phenacetin O-deethylation preincubated for 15 mins by LC-MS/MS analysis in presence of NADPH; format: ADME
pIC50: −log10 of the molar value.
property-measured: pIC50

Task: Any idea what its pIC50 is? The compound is N#C[C@@H]1C[C@@H]2C[C@@H]2N1C(=O)[C@@H](N)C12CC3CC(O)(CC(O)(C3)C1)C2
Output: < 3.70

---

molecular target: Cytochrome P450 2C8 (Homo sapiens, UniProt P10632); test: Inhibition of CYP2C8 in human liver microsomes assessed as paclitaxel 6alpha-hydroxylation after 3 mins by LC-MS/MS analysis in presence of NADPH; format: ADME
property-measured: IC50

compound	assayed-system	IC50
N#C[C@@H]1C[C@@H]2C[C@@H]2N1C(=O)[C@@H](N)C12CC3CC(O)(CC(O)(C3)C1)C2	Cytochrome P450 2C8 (Homo sapiens, UniProt P10632)	> 200 µM

Here's the next entry for you.
Task: # input compound: N#C[C@@H]1C[C@@H]2C[C@@H]2N1C(=O)[C@@H](N)C12CC3CC(CC(O)(C3)C1)C2 [SAXAGLIPTIN ANHYDROUS] ; wanted: its IC50
Output: > 50 µM

---

For each record, write down the corresponding pIC50.
molecular target: Cytochrome P450 2E1 (Homo sapiens, UniProt P05181); assay: Inhibition of CYP2E1 in human liver microsomes assessed as chlorzoxazone 6-hydroxylation preincubated for 15 mins by LC-MS/MS analysis in presence of NADPH; assay type: ADME
Sequence (P05181 whole entry): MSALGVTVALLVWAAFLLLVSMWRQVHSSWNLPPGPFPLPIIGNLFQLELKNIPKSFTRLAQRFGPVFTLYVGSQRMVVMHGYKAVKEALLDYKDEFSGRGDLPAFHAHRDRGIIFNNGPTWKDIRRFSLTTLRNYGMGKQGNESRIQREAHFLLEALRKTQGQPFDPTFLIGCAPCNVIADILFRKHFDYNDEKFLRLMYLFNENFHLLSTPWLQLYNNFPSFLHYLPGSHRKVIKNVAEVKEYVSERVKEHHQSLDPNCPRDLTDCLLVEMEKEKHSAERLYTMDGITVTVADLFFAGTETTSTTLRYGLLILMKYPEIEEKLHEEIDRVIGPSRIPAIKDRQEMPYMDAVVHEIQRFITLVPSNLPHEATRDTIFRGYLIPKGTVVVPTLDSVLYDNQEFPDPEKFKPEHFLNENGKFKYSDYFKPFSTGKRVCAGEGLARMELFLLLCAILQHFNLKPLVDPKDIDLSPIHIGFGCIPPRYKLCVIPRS
pIC50: −log10 of the molar value.

molecule	pIC50
N#C[C@@H]1C[C@@H]2C[C@@H]2N1C(=O)[C@@H](N)C12CC3CC(O)(CC(O)(C3)C1)C2	< 3.70

Task: I have this molecule here, N#C[C@@H]1C[C@@H]2C[C@@H]2N1C(=O)[C@@H](N)C12CC3CC(CC(O)(C3)C1)C2 [SAXAGLIPTIN ANHYDROUS] , and I need its recorded pIC50.
Output: < 4.30

---

Exercise: state measured pIC50 for each of the compounds provided.
target: Cytochrome P450 2E1 (Homo sapiens); assay: Inhibition of CYP2E1 in human liver microsomes assessed as chlorzoxazone 6-hydroxylation after 3 mins by LC-MS/MS analysis in presence of NADPH; format: ADME
pIC50: −log10 of the molar value.

compound	assayed-system	pIC50
N#C[C@@H]1C[C@@H]2C[C@@H]2N1C(=O)[C@@H](N)C12CC3CC(CC(O)(C3)C1)C2 [SAXAGLIPTIN ANHYDROUS]	Cytochrome P450 2E1 (Homo sapiens)	< 4.30

Attention now shifts to the item below.
Task: Look up pIC50 for this compound: N#C[C@@H]1C[C@@H]2C[C@@H]2N1C(=O)[C@@H](N)C12CC3CC(O)(CC(O)(C3)C1)C2
Output: < 3.70

---

biological target: Cytochrome P450 2B6 (Homo sapiens); assay: Inhibition of CYP2B6 in human liver microsomes assessed as bupropion hydroxylation after 3 mins by LC-MS/MS analysis in presence of NADPH; assay type: ADME
pIC50: −log10 of the molar value.
property-measured: pIC50

compound	assayed-system	readout-value
N#C[C@@H]1C[C@@H]2C[C@@H]2N1C(=O)[C@@H](N)C12CC3CC(O)(CC(O)(C3)C1)C2	Cytochrome P450 2B6 (Homo sapiens)	< 3.70

The record that follows has no pIC50 shown yet.
Task: What does the record list as pIC50 for N#C[C@@H]1C[C@@H]2C[C@@H]2N1C(=O)[C@@H](N)C12CC3CC(CC(O)(C3)C1)C2 [SAXAGLIPTIN ANHYDROUS] ?
Output: < 4.30

---

Biological target: Cytochrome P450 1A2 (Homo sapiens)
Sequence (P05177 whole entry): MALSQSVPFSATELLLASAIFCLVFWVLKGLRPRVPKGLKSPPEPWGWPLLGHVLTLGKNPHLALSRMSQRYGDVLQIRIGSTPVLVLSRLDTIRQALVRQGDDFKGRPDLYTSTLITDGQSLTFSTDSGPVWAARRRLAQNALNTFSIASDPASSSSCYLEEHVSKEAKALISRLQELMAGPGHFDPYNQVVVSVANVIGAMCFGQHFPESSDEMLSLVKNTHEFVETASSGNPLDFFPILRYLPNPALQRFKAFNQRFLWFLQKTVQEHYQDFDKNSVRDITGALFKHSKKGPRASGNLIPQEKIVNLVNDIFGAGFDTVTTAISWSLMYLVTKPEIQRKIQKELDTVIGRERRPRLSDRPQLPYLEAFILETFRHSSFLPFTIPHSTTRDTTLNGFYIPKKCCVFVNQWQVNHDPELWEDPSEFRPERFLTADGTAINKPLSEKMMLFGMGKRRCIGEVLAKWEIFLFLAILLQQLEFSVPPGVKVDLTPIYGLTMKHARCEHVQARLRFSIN
Assay: Inhibition of CYP1A2 in human liver microsomes assessed as phenacetin O-deethylation after 3 mins by LC-MS/MS analysis in presence of NADPH
Assay type: ADME
pIC50: −log10 of the molar value.
property-measured: pIC50

Task: Would you kindly share the measured pIC50 for N#C[C@@H]1C[C@@H]2C[C@@H]2N1C(=O)[C@@H](N)C12CC3CC(O)(CC(O)(C3)C1)C2 ?
Output: < 3.70

---

target: Cytochrome P450 3A4 (Homo sapiens, UniProt P08684); experiment: Inhibition of CYP3A4 in human liver microsomes assessed as midazolam 1'-hydroxylation after 3 mins by LC-MS/MS analysis; format: ADME
Sequence (P08684 whole entry): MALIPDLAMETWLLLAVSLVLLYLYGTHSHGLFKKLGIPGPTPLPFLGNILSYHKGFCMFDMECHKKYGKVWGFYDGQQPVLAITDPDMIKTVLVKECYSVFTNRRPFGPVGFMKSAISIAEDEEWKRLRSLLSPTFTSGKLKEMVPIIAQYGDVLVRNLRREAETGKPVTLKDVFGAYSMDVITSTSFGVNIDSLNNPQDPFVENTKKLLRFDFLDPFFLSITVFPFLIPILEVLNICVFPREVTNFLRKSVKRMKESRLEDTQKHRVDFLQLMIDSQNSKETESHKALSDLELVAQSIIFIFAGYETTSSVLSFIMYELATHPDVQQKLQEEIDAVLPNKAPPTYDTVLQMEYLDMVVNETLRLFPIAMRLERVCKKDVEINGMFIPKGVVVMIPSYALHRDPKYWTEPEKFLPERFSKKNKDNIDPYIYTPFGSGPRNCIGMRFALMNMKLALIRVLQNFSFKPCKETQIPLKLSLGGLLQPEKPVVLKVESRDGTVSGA
pIC50: −log10 of the molar value.
property-measured: pIC50

Task: Would you kindly share the measured pIC50 for N#C[C@@H]1C[C@@H]2C[C@@H]2N1C(=O)[C@@H](N)C12CC3CC(O)(CC(O)(C3)C1)C2 ?
Output: < 3.70

---

test: Drug metabolism in human assessed as parent compound level in feces at 50 mg, po after up to 168 hrs by LC-MS/MS analysis; assay type: ADME, organism-based; details: read-out: Drug metabolism
property-measured: dose excreted at 168 h
Show the value, then the unit it is measured in.

Task: If you can, please state the reported dose excreted at 168 h value of N#C[C@@H]1C[C@@H]2C[C@@H]2N1C(=O)[C@@H](N)C12CC3CC(CC(O)(C3)C1)C2 [SAXAGLIPTIN ANHYDROUS] .
Output: 0.5%

---

Molecular target: Cytochrome P450 2C8 (Homo sapiens, UniProt P10632)
Sequence (P10632 whole entry): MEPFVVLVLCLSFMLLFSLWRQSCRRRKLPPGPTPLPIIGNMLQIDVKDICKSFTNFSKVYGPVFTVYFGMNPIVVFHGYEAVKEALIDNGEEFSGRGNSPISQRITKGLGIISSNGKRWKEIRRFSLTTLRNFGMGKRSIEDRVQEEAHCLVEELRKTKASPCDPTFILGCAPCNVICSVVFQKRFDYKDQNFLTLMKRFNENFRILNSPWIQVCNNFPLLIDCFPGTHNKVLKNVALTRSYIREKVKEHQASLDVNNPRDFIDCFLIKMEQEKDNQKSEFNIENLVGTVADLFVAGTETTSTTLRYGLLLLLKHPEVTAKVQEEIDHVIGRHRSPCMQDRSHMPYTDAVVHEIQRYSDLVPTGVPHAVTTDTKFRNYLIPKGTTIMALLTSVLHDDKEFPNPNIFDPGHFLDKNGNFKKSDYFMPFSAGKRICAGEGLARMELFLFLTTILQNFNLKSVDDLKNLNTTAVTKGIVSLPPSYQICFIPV
Test: Inhibition of CYP2C8 in human liver microsomes assessed as paclitaxel 6alpha-hydroxylation preincubated for 15 mins by LC-MS/MS analysis in presence of NADPH
Format: ADME
property-measured: IC50

compound	readout-value
N#C[C@@H]1C[C@@H]2C[C@@H]2N1C(=O)[C@@H](N)C12CC3CC(CC(O)(C3)C1)C2 [SAXAGLIPTIN ANHYDROUS]	> 50 µM

// next item, IC50 requested
Task: # input compound: N#C[C@@H]1C[C@@H]2C[C@@H]2N1C(=O)[C@@H](N)C12CC3CC(O)(CC(O)(C3)C1)C2 ; wanted: its IC50
Output: > 200 µM
